Quick reference for folding enthalpy among some sequences
- protocol text: folding enthalpy; higher = less favourable; fluorescence melt of hairpins on a sequencing array, two-state fit
- protocol conditions: sodium 0.088 M
Entry rule: numbers only, all in kcal/mol.

Prompt: Sample CGTCGGAAACGACG (((((....))))) — what was its folding enthalpy?
Response: -27.6

Prompt: Sample CGGTTGAAAAACCG (((((....))))) — what was its folding enthalpy?
Response: -29.6

Prompt: Sample GGCTTTGCGAAAGCAGCC (((..(((....)))))) — what was its folding enthalpy?
Response: -17.2

Prompt: Sample GATTTTGGAAACGAAATC (((((.(....).))))) — what was its folding enthalpy?
Response: -34.9

====

Quick reference for folding enthalpy among some sequences
- protocol text: folding enthalpy; higher = less favourable; fluorescence melt of hairpins on a sequencing array, two-state fit
- protocol conditions: sodium 0.088 M
Form field: result (number plus unit)

Take a look at these entries with their results.
chain sequence	folding enthalpy
GATCTAATCTAGATC ((((((...))))))	-118 kJ/mol
GTTAGTCGAAAGACGAAC (((.(((....))).)))	-107 kJ/mol
GAAAGTGGAAACATTTTC ((((.((....)).))))	-115 kJ/mol

Prompt: Sample GGTAGCGAAAGCTGAACC ((((((....)))..))) — what was its folding enthalpy?
Response: -73.6 kJ/mol

Prompt: Sample GTTTAGAAATAAAC (((((....))))) — what was its folding enthalpy?
Response: -39 kJ/mol

Prompt: Sample GGGTTCGAAAGAACACCC ((((((....)))..))) — what was its folding enthalpy?
Response: -49.2 kJ/mol

====

Quick reference for folding enthalpy among some sequences
- protocol text: folding enthalpy; higher = less favourable; fluorescence melt of hairpins on a sequencing array, two-state fit
- protocol conditions: sodium 0.088 M
Form field: result (number plus unit)

Take a look at these entries with their results.
chain sequence	folding enthalpy
CGTACGGAAACGTTAACG ((((((....)))..)))	-16.7 kcal/mol
GCGGTTGGAAACAGCTGC ((.(.((....)).).))	-25.9 kcal/mol
GCAGCCGGAAACGACCGC ((.(.((....)).).))	-20.9 kcal/mol
GCTGCCTCGAAAGAGAGC (((..(((....))))))	-14 kcal/mol
GCATGGAAACATGC (((((....)))))	-30.9 kcal/mol
GAAGCAGGAAACCGCTTC (((((.(....).)))))	-30.4 kcal/mol
GGGAGTGGAAACGCTCCC (((((.(....).)))))	-38.9 kcal/mol
GACGGAACGAAAGTTGTC (((..(((....))))))	-19.2 kcal/mol

Prompt: Sample GCCAGACGAAAGTCGGGC (((.(((....))).))) — what was its folding enthalpy?
Response: -34 kcal/mol

====

Quick reference for Tm among some sequences
- protocol text: melting temperature; fluorescence melt of hairpins on a sequencing array, two-state fit, raised by 9.35 °C to match UV melts
- protocol conditions: sodium 0.088 M
Entry rule: numbers only, all in °C.

Take a look at these entries with their results.
chain sequence	measurement label	measured result
GCTAATGGAAACATTGGC ((.((((....)))).))	Tm	45.6
GAACAACGAAAGTTTTC (((.(((....))))))	Tm	28.2
GATCCCAACCGGGATC ((((((....))))))	Tm	63.4
GTGCAGCCGAAAGGCCAC (((..(((....))))))	Tm	49.1
GGGATAGGAAACTATCCC (((((((....)))))))	Tm	59.2
GCGTTGCCGAAAGGCCGC (((..(((....))))))	Tm	55.6
GATCGGACAACCGATC ((((((....))))))	Tm	53.5
GTCGCTCGAAAGAGGAC (((.(((....))))))	Tm	45.4

Prompt: Sample GGTAATGGAAACGTTACC (((((.(....).))))) — what was its Tm?
Response: 45

Prompt: Sample GAGAAACCGAAAGGTCTC (((..(((....)))))) — what was its Tm?
Response: 34.1

Prompt: Sample GATCAAGCGCTTGATC ((((((....)))))) — what was its Tm?
Response: 55.9

Prompt: Sample GGATATGGAAACATACCC ((.((((....)))).)) — what was its Tm?
Response: 33.2

====

- protocol text: melting temperature; fluorescence melt of hairpins on a sequencing array, two-state fit, raised by 9.35 °C to match UV melts
- protocol conditions: sodium 0.088 M
Quick reference for Tm among some sequences
Entry rule: numbers only, all in °C.

Take a look at these entries with their results.
chain sequence	value units	Tm
GGTACGCGAAAGCGCACC (((.(((....))).)))	°C	57.6
GTGGCTGCGAAAGCACAC (((..(((....))))))	°C	47.8
GCCACAACGAAAGTTGGC (((..(((....))))))	°C	48.5

Prompt: Sample GCCATGCGAAAGCCGGGC (((..((....))..))) — what was its Tm?
Response: 55.3

====

- protocol text: folding enthalpy; higher = less favourable; fluorescence melt of hairpins on a sequencing array, two-state fit
- protocol conditions: sodium 0.088 M
Quick reference for folding enthalpy among some sequences
Entry rule: numbers only, all in kcal/mol.

Take a look at these entries with their results.
chain sequence	measurement label	measured result
GCTAAGCGAAAGCATCGC ((.(.((....)).).))	folding enthalpy	-11.1
GATCAGCTACTGATC ((((((...))))))	folding enthalpy	-35.2
GAAAGGCCGAAAGGCTTC (((..(((....))))))	folding enthalpy	-8.26
GACGAAGGAAACTTCGCC (.(((((....))))).)	folding enthalpy	-16.8
GATCCCAAGGGGGATC ((((((....))))))	folding enthalpy	-33

Field: next sequence
Prompt: Sample CGCTGCGGAAACGCGCG (((.(((....)))))) — what was its folding enthalpy?
Response: -27.1

====

Quick reference for folding enthalpy among some sequences
- protocol text: folding enthalpy; higher = less favourable; fluorescence melt of hairpins on a sequencing array, two-state fit
- protocol conditions: sodium 0.088 M
Entry rule: numbers only, all in kcal/mol.

Take a look at these entries with their results.
chain sequence	folding enthalpy [kcal/mol]
GCTCTTGAAAAAGAGC ((((((....))))))	-32.6
GATCCGGGGCGGATC ((((((...))))))	-37.2
GCGACCCCTCGC ((((....))))	-23.4
GATCAATCGGTTGATC ((((((....))))))	-42
GGACCTGGAAACAGATCC (((.(((....))).)))	-28.7
GAAGGCGAAAGCCGGTTC ((((((....)))..)))	-9.54
GCCTCGCGAAAGCGGCGC ((..(((....)))..))	-16.4
GATCCTTCTAAGGATC ((((((....))))))	-47.8

Prompt: Sample GGTTGCGAAAGCATTACC ((((((....)))..))) — what was its folding enthalpy?
Response: -17.7

Prompt: Sample GGTTGCGAAAGCAACACC ((((((....)))..))) — what was its folding enthalpy?
Response: -8.28

Prompt: Sample GCGCTACGAAAGTATCGC (((.(((....))).))) — what was its folding enthalpy?
Response: -42.1

Prompt: Sample GCTTGCGAAAGCACCAGC ((((((....)))..))) — what was its folding enthalpy?
Response: -8.92

Prompt: Sample GTACAAGAAATTGTAC ((((((....)))))) — what was its folding enthalpy?
Response: -32.5

Prompt: Sample GTATTCCGAAAGGAGTAC (((.(((....))).))) — what was its folding enthalpy?
Response: -36.7

Prompt: Sample GTATCGGGAAACCGATAC (((((((....))))))) — what was its folding enthalpy?
Response: -42.3

Prompt: Sample GTCTGCGAAAGCATGAC ((((((....))).))) — what was its folding enthalpy?
Response: -23.5

====

Quick reference for Tm among some sequences
- protocol text: melting temperature; fluorescence melt of hairpins on a sequencing array, two-state fit, raised by 9.35 °C to match UV melts
- protocol conditions: sodium 0.088 M

chain sequence	Tm
GCGAGCGAAAGCTACCGC ((((((....)))..)))	48.1 °C
GGATTCGGAAACGAACCC ((.((((....)))).))	45.6 °C
GTAATAGCGAAAGCTTAC (((..(((....))))))	30.2 °C
GTACTGGGAAACTAGTGC (.(((.(....).))).)	31.2 °C
GTGTTGGGAAACTGACAC ((((..(....)..))))	39.3 °C

Prompt: Sample GCCGATCCGAAAGGAGGC (((..(((....)))))) — what was its Tm?
Response: 52.7 °C

Prompt: Sample GCTCCTCGAAAGAGAGC (((.(((....)))))) — what was its Tm?
Response: 49.2 °C

Prompt: Sample GTTGTACCGAAAGGTAAC (((..(((....)))))) — what was its Tm?
Response: 47.4 °C

Prompt: Sample GAAACGCGAAAGCGTTC (((.(((....)))))) — what was its Tm?
Response: 50.6 °C

Prompt: Sample GCTGAACCGAAAGGTAGC (((..(((....)))))) — what was its Tm?
Response: 42.1 °C

Prompt: Sample GATCGAGCTTTCGATC ((((((....)))))) — what was its Tm?
Response: 52.6 °C

Prompt: Sample GTTTACGAAAGTAGAAC ((((((....))).))) — what was its Tm?
Response: 27.2 °C
